System: SW-620
Experiment: NCI tumour cell line growth inhibition, 48 h
Active and inactive are the calls of the source. No stated cut-off is given here; in the data, active = GI50 up to about 1.1 µM and inactive = higher.
# valid calls are active, inactive; nothing else

Could you check what this test reported for CCC(=O)NC(Nc1cccc(F)c1)(C(F)(F)F)C(F)(F)F ? inactive

# lookup: test call for O=C(N/C=C1\C(=O)Oc2ccccc2C1=O)Nc1ccccc1 inactive

// outcome(item) with item = CC1=C(Nc2c(C)cc(O)cc2O)C(=O)C=c2oc3c(c21)C(C)=C(Nc1c(C)cc(O)cc1O)C(=O)C=3 inactive

What did this assay record as the result for O=C(c1ccc(Cl)cc1)N(C(=S)OCCOc1ccccc1)c1ccccc1 ? inactive

Give the logged outcome of this assay for the following compound: O=[N+]([O-])c1ccc(Cl)c(C2CC(c3cccc4ccccc34)=Nc3ccccc3S2)c1 (stereo not drawn) inactive

Tell me the recorded outcome of this test for CN1C(=O)[C@H](c2c[nH]c3ccccc23)[C@H](c2c[nH]c3ccccc23)C1=O . inactive

Hi, sorry to bother you, what did the test record for COC(=O)/C=C\C(C#N)(C#N)/N=C/c1sccc1C ? inactive

Tell me the assay call for BrCc1ccc2ccc3ccc(CBr)nc3c2n1 please. inactive

Recorded test call requested for CC1=CC=C2c3ccccc3C=CN2C(=O)C1 inactive

Short answer needed: outcome of this test for COc1ccc2oc(C(=O)N3CC(CCl)c4ccc(N)cc43)cc2c1 (stereo not drawn) ? active

Assay outcome for COC(=O)NCCc1n[nH]c2c1C(=O)C=C(OC)C2=O : what was it? inactive

Write down the call the test reported for this compound. Item: Cc1cc(O)nc(CNC(=O)c2ccc3ccccc3c2)n1 inactive

So what was the verdict on c1ccc(COC2NCCN2Cc2ccccc2)cc1 (stereo not drawn) in this test? inactive

For C[N+](C)(C)CCc1ccccc1 , which call appears in the assay record? inactive

What did the test return for CCOC(=O)C(C(O)c1ccc([N+](=O)[O-])cc1)P(=O)(OCC)OCC (stereo not drawn) ? inactive

State the result this test recorded for CN1C/C(=C\c2cccs2)C2=NN(c3ccccc3)C(c3cccs3)C2C1 (stereo not drawn) . inactive

Hello, I am checking results. What call was entered for NC(Cc1cc(Br)c(O)c(Br)c1)C(=O)O (stereo not drawn) ? inactive

Outcome logged for O=C(/C=C/c1ccc(Cl)c(Cl)c1)c1ccc2ccccc2c1 in this assay: inactive

I would be grateful if you could indicate the recorded call for CC(C)/C(Cl)=N\OC(=O)Nc1ccc(S(N)(=O)=O)cc1 . inactive

Called result for C#CCCOC1(OC)N=NC(C)(C)O1 (stereo not drawn) inactive

Returns: the outcome recorded for C[n+]1c2ccccc2n2c3ccccc3c(NCCCN3CCOCC3)c(C#N)c21 in this assay. active

For CC(C)(C)OC(=O)c1ccc(NCc2cc(O)ccc2O)cc1 , which call appears in the assay record? inactive

Could you kindly confirm the outcome this assay logged for CC1OC(O[C@H]2/C=C/C=C/C=C/C=C/C=C/C=C/C=C/[C@H](C)[C@@H](O)[C@@H](C)[C@H](C)OC(=O)C[C@H](O)C[C@H](O)CC[C@@H](O)[C@H](O)C[C@H](O)C[C@]3(O)C[C@H](O)[C@@H](C(=O)O)[C@H](C2)O3)C(O)C(N)C1O (stereo partly drawn) ? inactive

Status in this test for CCCNC(=S)N/C=C1\C(=O)Nc2ccccc2C1=O ? inactive

Call for entry COc1ccc(-c2[nH]c(=O)n(C3OC(CO)C(O)C(O)C3O)c(=O)c2C#N)cc1 (stereo not drawn) : inactive

// param item: N#Cc1c(-c2ccccc2)c(-c2ccccc2)cc2c(=O)c3ccc(Cl)cc3[nH]c12 ; yields the recorded call inactive

# fetch the recorded call for C(=C\c1c2oc(-c3ccccc3)cc(-c3ccccc3)c-2c2ccccc12)/C=C1\c2ccccc2-c2c(-c3ccccc3)cc(-c3ccccc3)[o+]c21.[O-][Cl+3]([O-])([O-])[O-] here inactive

Test call for this compound, please: COC(=O)C1=C(O)C(C(=O)OC)[C@]2(O)[C@H](C(=O)OC)[C@H]1C[C@@H](c1ccc(OC)c(OC)c1)[C@H]2C(=O)OC (stereo partly drawn) inactive

Test call for this compound, please: CN(C)/N=N/c1ccccc1 inactive

What did this assay record as the result for Cc1cn([C@@H]2O[C@H](CO)[C@@H](O)[C@@H]2O)c(=O)[nH]c1=O ? inactive

Which result was noted for this compound in the test: C1=N\CCNCCNCC/N=C\c2ccc(cc2)OCc2cccc(n2)COc2ccc/1cc2 inactive

Would you mind telling me which call this test gave Cc1nc(SCC(=O)Nc2ccc(Cl)cc2)c2sc(=S)n(-c3ccccc3)c2n1 ? inactive

I'd appreciate the recorded outcome for Cn1ncc2c(Cl)ncnc21 from this test. inactive

How was O=C1c2ccccc2C2(c3ccc(Cl)cc3)N[C@@H]3CCCC[C@@H]3N12 (stereo partly drawn) classified in this test? inactive

Which outcome was assigned to COC(=O)C(CCCCN)NC(=O)C(CCCCN)NC(=O)C(CCCCN)NC(C)=O.Cc1ccc(C(=O)Nc2ccc(S(=O)(=O)O)c3cc(S(=O)(=O)O)cc(S(=O)(=O)O)c23)cc1NC(=O)c1cccc(NC(=O)Nc2cccc(C(=O)Nc3cc(C(=O)Nc4ccc(S(=O)(=O)O)c5cc(S(=O)(=O)O)cc(S(=O)(=O)O)c45)ccc3C)c2)c1 in this test? inactive

Test call, this compound: O=C1CCC(NC(=O)Cc2ccc(O)cc2)C(=O)N1 (stereo not drawn) inactive

Can you look up the reported call for O=C(O)c1c(Br)c(Br)c(Br)c(Br)c1C1c2ccc(O)cc2Oc2cc(O)ccc21 for me? inactive

For this compound, state the assay outcome: O=C(CC(=O)n1nc(-c2ccccc2)c(/N=N/c2ccc([N+](=O)[O-])cc2)c1-c1ccccc1)Nc1ccc(Cl)cc1 inactive
